molecular target: human MDR1 (P-gp) (Homo sapiens, UniProt P08183); test: Gentest ABC transporter membrane ATPase assay; settings: human, membranes displaying human MDR1 (Gentest ATPase assay)
Sequence (P08183 whole entry): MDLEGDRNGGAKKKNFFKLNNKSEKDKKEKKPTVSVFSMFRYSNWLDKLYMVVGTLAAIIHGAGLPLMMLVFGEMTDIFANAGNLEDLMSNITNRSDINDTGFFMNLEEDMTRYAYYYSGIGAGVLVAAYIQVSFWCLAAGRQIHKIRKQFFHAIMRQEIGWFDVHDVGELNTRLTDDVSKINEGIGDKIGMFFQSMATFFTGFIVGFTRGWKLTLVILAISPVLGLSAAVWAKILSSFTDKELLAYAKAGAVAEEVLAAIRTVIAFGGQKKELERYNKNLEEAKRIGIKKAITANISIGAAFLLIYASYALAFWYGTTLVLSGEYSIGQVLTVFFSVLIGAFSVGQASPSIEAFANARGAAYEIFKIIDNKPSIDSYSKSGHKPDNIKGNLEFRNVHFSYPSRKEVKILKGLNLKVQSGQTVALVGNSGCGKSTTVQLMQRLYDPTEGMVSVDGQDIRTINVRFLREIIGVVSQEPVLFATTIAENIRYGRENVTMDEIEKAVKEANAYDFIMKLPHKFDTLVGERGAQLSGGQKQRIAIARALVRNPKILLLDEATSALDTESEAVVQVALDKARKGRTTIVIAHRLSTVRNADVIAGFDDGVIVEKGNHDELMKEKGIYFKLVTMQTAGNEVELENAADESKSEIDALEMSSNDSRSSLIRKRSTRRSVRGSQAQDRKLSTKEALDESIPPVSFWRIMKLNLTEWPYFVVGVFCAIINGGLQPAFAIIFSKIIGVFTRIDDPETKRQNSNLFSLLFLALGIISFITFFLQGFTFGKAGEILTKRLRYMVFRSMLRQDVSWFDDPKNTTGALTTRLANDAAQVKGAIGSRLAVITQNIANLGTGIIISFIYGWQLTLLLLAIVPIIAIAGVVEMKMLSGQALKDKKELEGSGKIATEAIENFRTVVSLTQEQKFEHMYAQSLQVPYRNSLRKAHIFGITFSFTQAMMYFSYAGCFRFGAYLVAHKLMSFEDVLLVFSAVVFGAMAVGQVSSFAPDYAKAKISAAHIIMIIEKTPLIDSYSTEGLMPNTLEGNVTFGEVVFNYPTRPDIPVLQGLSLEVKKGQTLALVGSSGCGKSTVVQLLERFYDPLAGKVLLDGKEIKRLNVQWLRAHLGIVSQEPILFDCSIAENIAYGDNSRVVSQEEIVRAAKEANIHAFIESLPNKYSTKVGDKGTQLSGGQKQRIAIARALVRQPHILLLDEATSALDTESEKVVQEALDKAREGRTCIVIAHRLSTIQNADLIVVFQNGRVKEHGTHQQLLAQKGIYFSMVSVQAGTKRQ
assay-readout: Km at 30 min (µM)
Field format: number, assumed µM, no unit text.

For CC(C)(C)NC(=O)[C@@H]1C[C@@H]2CCCC[C@@H]2CN1C[C@@H](O)[C@H](Cc1ccccc1)NC(=O)[C@H](CC(N)=O)NC(=O)c1ccc2ccccc2n1 the compound record lists Km at 30 min as 24.9

---

What Vmax was measured for each of the following?
target: mouse Bcrp (Mus musculus); construct: purchased Corning (Gentest), Germany; assay: Gentest ABC transporter membrane ATPase assay; format: biochemical; conditions: ATPase; 0 indicates no enzyme turnover
Sequence (Q7TMS5 whole entry): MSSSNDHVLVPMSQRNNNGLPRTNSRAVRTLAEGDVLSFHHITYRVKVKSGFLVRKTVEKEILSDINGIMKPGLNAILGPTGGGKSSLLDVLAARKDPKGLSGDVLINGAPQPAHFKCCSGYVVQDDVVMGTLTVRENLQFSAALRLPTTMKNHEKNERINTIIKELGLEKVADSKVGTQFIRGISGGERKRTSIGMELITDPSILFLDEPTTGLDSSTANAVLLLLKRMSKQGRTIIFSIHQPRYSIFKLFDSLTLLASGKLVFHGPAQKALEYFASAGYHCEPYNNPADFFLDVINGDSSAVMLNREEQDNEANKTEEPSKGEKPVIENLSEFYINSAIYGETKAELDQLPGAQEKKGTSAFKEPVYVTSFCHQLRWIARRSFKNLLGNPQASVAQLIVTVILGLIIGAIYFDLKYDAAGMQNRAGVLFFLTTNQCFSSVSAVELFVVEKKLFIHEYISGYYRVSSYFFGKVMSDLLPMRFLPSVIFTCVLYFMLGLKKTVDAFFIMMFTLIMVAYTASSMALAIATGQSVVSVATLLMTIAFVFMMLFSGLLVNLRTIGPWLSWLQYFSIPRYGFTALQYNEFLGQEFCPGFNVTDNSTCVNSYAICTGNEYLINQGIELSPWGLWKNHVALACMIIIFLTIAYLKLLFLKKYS
The figure you give is taken to be in µM/min; do not add the unit.

Quick note, Vmax for C[C@H]1O[C@@H](O[C@H]2[C@@H](O)C[C@H](O[C@H]3[C@@H](O)C[C@H](O[C@H]4CC[C@@]5(C)[C@H](CC[C@@H]6[C@@H]5C[C@@H](O)[C@]5(C)[C@@H](C7=CC(=O)OC7)CC[C@]65O)C4)O[C@@H]3C)O[C@@H]2C)C[C@H](O)[C@@H]1O landed at 0

The recorded Vmax for entry CN1CCC[C@@H]1Cc1c[nH]c2ccc(CCS(=O)(=O)c3ccccc3)cc12 equals 0

What the record says about OCc1cc(C(O)CNCCCCCCOCCCCc2ccccc2)ccc1O (stereo not drawn) : Vmax is 0

Lab note: CC(C)(C)NC(=O)[C@@H]1C[C@@H]2CCCC[C@@H]2CN1C[C@@H](O)[C@H](Cc1ccccc1)NC(=O)[C@H](CC(N)=O)NC(=O)c1ccc2ccccc2n1 gave Vmax of 0

Vmax recorded for this compound, CCc1cc2c(cc1CC)CC(NC[C@H](O)c1ccc(O)c3[nH]c(=O)ccc13)C2 , is 0

The value of Vmax measured for the compound COC(=O)c1ccccc1-c1c2ccc(=N)cc-2oc2cc(N)ccc12.Cl turned out to be 18.5

According to the records, this compound COc1ccc(C[C@H](N)C(=O)N[C@H]2[C@@H](O)[C@H](n3cnc4c(N(C)C)ncnc43)O[C@@H]2CO)cc1 displays Vmax of 0

Vmax for CC[C@@]1([C@@H]2O[C@@H]([C@H]3O[C@@](O)(CO)[C@H](C)C[C@@H]3C)C[C@@H]2C)CC[C@H]([C@]2(C)CC[C@]3(C[C@H](O)[C@@H](C)[C@@H]([C@@H](C)[C@@H](OC)[C@H](C)C(=O)O)O3)O2)O1 is 0

Kindly note the recorded Vmax for COc1cc2c(c(OC)c1OC)-c1ccc(OC)c(=O)cc1[C@@H](NC(C)=O)CC2 , which is 0

The value of Vmax measured for the compound CC(C)(C)NCC(O)c1ccc(O)c(CO)c1 (stereo not drawn) turned out to be 0

compound O=C1c2c(O)ccc(O)c2C(=O)c2c(NCCNCCO)ccc(NCCNCCO)c21 , Vmax observed: 4.79

Note to self: Vmax recorded for CC[C@H]1OC(=O)[C@H](C)[C@@H](O[C@H]2C[C@@](C)(OC)[C@@H](O)[C@H](C)O2)[C@H](C)[C@@H](O[C@@H]2O[C@H](C)C[C@H](N(C)C)[C@H]2O)[C@](C)(O)C[C@@H](C)C(=O)[C@H](C)[C@@H](O)[C@]1(C)O was 0

Entry source: paper PMC5736782
